# assay-details: in vitro
# condition-label: 1 uM, 0.5 mg microsome/mL, 1 mM NADPH
measured-parameter: Rat liver microsomal stability (RLM) t½ min (min)
Return type: number; implicit unit min.

Endpoint output: Rat liver microsomal stability (RLM) t½ min of CC(C)C(N)C(=O)N/N=C(/CO)[C@@]1(O)[C@H](C)C[C@H]2[C@@H]3CCC4=CC(=O)C=C[C@]4(C)[C@@]3(F)[C@@H](O)C[C@@]21C (single isomer, unassigned) [Compound IVA] . Value?
35

Further, for C[C@@H]1C[C@H]2[C@@H]3CCC4=CC(=O)C=C[C@]4(C)[C@@]3(F)[C@@H](O)C[C@]2(C)[C@@]1(O)/C(CO)=N\NC(=O)C(N)Cc1ccccc1 (single isomer, unassigned) [Compound IIIA] ?
33

Further, for CC(C)C(N)C(=O)N/N=C(/CO)[C@@]1(O)[C@H](C)C[C@H]2[C@@H]3CCC4=CC(=O)C=C[C@]4(C)[C@@]3(F)[C@@H](O)C[C@@]21C (single isomer, unassigned) [Compound IVB] ?
108

Further, for C[C@@H]1C[C@H]2[C@@H]3CCC4=CC(=O)C=C[C@]4(C)[C@@]3(F)[C@@H](O)C[C@]2(C)[C@@]1(O)/C(CO)=N\NC(=O)C(N)Cc1ccccc1 (single isomer, unassigned) [Compound IIIB] ?
81
